Tested on: 653999-131-R-J2-PDC complex spheroids, growth inhibition
assay info: Anticancer human tumor 653999-131-R-J2-PDC patient-derived lung adenocarcinoma cell line growth inhibition [RAS]
study conditions: second compound 0.00316 µM; first compound 0.1 µM; active compounds read low
viability, T/C values by entry
measurement kind: viability, T/C (%)

molecule="CC(C)n1nc(-c2ccc3oc(N)nc3c2)c2c(N)ncnc21 + C=CC(=O)N1CCN(c2nc(OCC3CCCN3C)nc3c(F)c(-c4nc(N)cc(C)c4C(F)(F)F)c(Cl)cc23)C(C)C1" observed_value=22.6
molecule="C=CC(=O)Nc1cc(Nc2nccc(-c3cn(C)c4ccccc34)n2)c(OC)cc1N(C)CCN(C)C + C=CC(=O)N1CCN(c2nc(OCC3CCCN3C)nc3c(F)c(-c4nc(N)cc(C)c4C(F)(F)F)c(Cl)cc23)C(C)C1" observed_value=94.9
molecule="Nc1ccn(C2OC(CO)C(O)C2(F)F)c(=O)n1 (stereo not drawn) + C=CC(=O)N1CCN(c2nc(OCC3CCCN3C)nc3c(F)c(-c4nc(N)cc(C)c4C(F)(F)F)c(Cl)cc23)C(C)C1" observed_value=56

====

System: 653999-131-R-J2-PDC complex spheroids, growth inhibition
assay info: Anticancer human tumor 653999-131-R-J2-PDC cell line growth inhibition [RAS];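 note: spheroids exposed to the agents for seven days before the readout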
study conditions: second compound 1 µM; first compound 10 µM; active compounds read low
viability, T/C values by entry
measurement kind: viability, T/C

compound="C[C@@H](NC(=O)c1ncnc(N)c1Cl)c1ncc(C(=O)Nc2cc(C(F)(F)F)c(Cl)cn2)s1 + C=CC(=O)N1CCN(c2nc(OCC3CCCN3C)nc3c(F)c(-c4nc(N)cc(C)c4C(F)(F)F)c(Cl)cc23)C(C)C1" observed_value=82.2%
compound="Cc1nc(N2CCC3(CC2)COC(C)C3N)c(CO)nc1Sc1ccnc(N)c1Cl (stereo unspecified) + C#Cc1c(F)ccc2cc(O)cc(-c3ncc4c(N5CC6CCC(C5)N6)nc(OCC56CCCN5CC(F)C6)nc4c3F)c12" observed_value=30.2%
compound="CCC(CC)c1cc(NC2CCC(N)C2)n2nccc2n1 (stereo unspecified) + C#Cc1c(F)ccc2cc(O)cc(-c3ncc4c(N5CC6CCC(C5)N6)nc(OCC56CCCN5CC(F)C6)nc4c3F)c12" observed_value=25.3%
compound="CC(C)NCC(C(=O)N1CCN(c2ncnc3c2C(C)CC3O)CC1)c1ccc(Cl)cc1 (stereo unspecified) + C#Cc1c(F)ccc2cc(O)cc(-c3ncc4c(N5CC6CCC(C5)N6)nc(OCC56CCCN5CC(F)C6)nc4c3F)c12" observed_value=14%
compound="CC(=O)OC12COC1CC(O)C1(C)C(=O)C(O)C3=C(C)C(OC(=O)C(O)C(NC(=O)OC(C)(C)C)c4ccccc4)CC(O)(C(OC(=O)c4ccccc4)C21)C3(C)C (stereo unspecified) + C#Cc1c(F)ccc2cc(O)cc(-c3ncc4c(N5CC6CCC(C5)N6)nc(OCC56CCCN5CC(F)C6)nc4c3F)c12" observed_value=31%
compound="Cc1nc(N2CCC3(CC2)COC(C)C3N)c(CO)nc1Sc1ccnc(N)c1Cl (stereo unspecified) + C=CC(=O)N1CCN(c2nc(OCC3CCCN3C)nc3c(F)c(-c4nc(N)cc(C)c4C(F)(F)F)c(Cl)cc23)C(C)C1" observed_value=82.1%
compound="CCC(CC)c1cc(NC2CCC(N)C2)n2nccc2n1 (stereo unspecified) + C=CC(=O)N1CCN(c2nc(OCC3CCCN3C)nc3c(F)c(-c4nc(N)cc(C)c4C(F)(F)F)c(Cl)cc23)C(C)C1" observed_value=20.9%
compound="CC(Nc1ccc2c(c1)OCCn1cc(N3C(=O)OCC3C(F)F)nc1-2)C(N)=O (stereo unspecified) + C=CC(=O)N1CCN(c2nc(OCC3CCCN3C)nc3c(F)c(-c4nc(N)cc(C)c4C(F)(F)F)c(Cl)cc23)C(C)C1" observed_value=28.7%
compound="CC1(O)CCCC1n1c(=O)c(C(F)F)cc2cnc(NC3CCN(S(C)(=O)=O)CC3)nc21 (stereo unspecified) + C#Cc1c(F)ccc2cc(O)cc(-c3ncc4c(N5CC6CCC(C5)N6)nc(OCC56CCCN5CC(F)C6)nc4c3F)c12" observed_value=24.5%
compound="CC(C)NCC(C(=O)N1CCN(c2ncnc3c2C(C)CC3O)CC1)c1ccc(Cl)cc1 (stereo unspecified) + C=CC(=O)N1CCN(c2nc(OCC3CCCN3C)nc3c(F)c(-c4nc(N)cc(C)c4C(F)(F)F)c(Cl)cc23)C(C)C1" observed_value=41.1%
compound="CC(=O)OC12COC1CC(O)C1(C)C(=O)C(O)C3=C(C)C(OC(=O)C(O)C(NC(=O)OC(C)(C)C)c4ccccc4)CC(O)(C(OC(=O)c4ccccc4)C21)C3(C)C (stereo unspecified) + C=CC(=O)N1CCN(c2nc(OCC3CCCN3C)nc3c(F)c(-c4nc(N)cc(C)c4C(F)(F)F)c(Cl)cc23)C(C)C1" observed_value=82.4%

====

viability, T/C values by entry
System: 653999-131-R-J2-PDC complex spheroids, growth inhibition
assay info: Anticancer human tumor 653999-131-R-J2-PDC cell line growth inhibition [RAS];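 note: spheroids exposed to the agents for seven days before the readout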
study conditions: second compound 0.00949 µM; first compound 0.0316 µM; active compounds read low
measurement kind: viability, T/C (%)

molecule="C=CC(=O)N1CCN(c2nc(OCC3CCCN3C)nc3c(F)c(-c4nc(N)cc(C)c4C(F)(F)F)c(Cl)cc23)C(C)C1 (stereo not drawn) + CCn1c(-c2cccnc2C(C)OC)c2c3cc(ccc31)N1CCOC(CC(NC(=O)C(C(C)C)N(C)C(=O)C3(F)CCN(C(=O)C#CC(C)(C)N(C)C)CC3)C(=O)N3CCCC(N3)C(=O)OCC(C)(C)C2)C1" measurement_kind="viability, T/C" observed_value=102
molecule="CC(=O)OC12COC1CC(O)C1(C)C(=O)C(O)C3=C(C)C(OC(=O)C(O)C(NC(=O)OC(C)(C)C)c4ccccc4)CC(O)(C(OC(=O)c4ccccc4)C21)C3(C)C (stereo not drawn) + CCn1c(-c2cccnc2C(C)OC)c2c3cc(ccc31)N1CCOC(CC(NC(=O)C(C(C)C)N(C)C(=O)C3(F)CCN(C(=O)C#CC(C)(C)N(C)C)CC3)C(=O)N3CCCC(N3)C(=O)OCC(C)(C)C2)C1" measurement_kind="viability, T/C" observed_value=60.5
molecule="CC(=O)OC12COC1CC(O)C1(C)C(=O)C(O)C3=C(C)C(OC(=O)C(O)C(NC(=O)OC(C)(C)C)c4ccccc4)CC(O)(C(OC(=O)c4ccccc4)C21)C3(C)C (stereo not drawn) + CCn1c(-c2cc(N3CCN(C)CC3)cnc2C(C)OC)c2c3cc(ccc31)-c1csc(n1)CC(NC(=O)C1CC1C)C(=O)N1CCCC(N1)C(=O)OCC(C)(C)C2" measurement_kind="viability, T/C" observed_value=14.9

====

viability, T/C values by entry
Tested on: 653999-131-R-J2-PDC complex spheroids, growth inhibition
assay info: Anticancer human tumor 653999-131-R-J2-PDC cell line growth inhibition [RAS];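 note: spheroids exposed to the agents for seven days before the readout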
study conditions: second compound 0.3 µM; first compound 0.000949 µM; active compounds read low
measurement kind: viability, T/C (%)

compound="CC1(C)CCC(Nc2ncc(C(F)(F)F)c(-c3c[nH]c4c(P(C)(C)=O)c(C#N)ccc34)n2)CN1 (centres undefined) + CCn1c(-c2cccnc2C(C)OC)c2c3cc(ccc31)N1CCOC(CC(NC(=O)C(C(C)C)N(C)C(=O)C3(F)CCN(C(=O)C#CC(C)(C)N(C)C)CC3)C(=O)N3CCCC(N3)C(=O)OCC(C)(C)C2)C1" observed_value=82.3
compound="CCc1c2c(nc3ccc(O)cc13)-c1cc3c(c(=O)n1C2)COC(=O)[C@]3(O)CC + CCn1c(-c2cc(N3CCN(C)CC3)cnc2C(C)OC)c2c3cc(ccc31)-c1csc(n1)CC(NC(=O)C1CC1C)C(=O)N1CCCC(N1)C(=O)OCC(C)(C)C2" observed_value=21.1
compound="CCc1c2c(nc3ccc(O)cc13)-c1cc3c(c(=O)n1C2)COC(=O)[C@]3(O)CC + CCn1c(-c2cccnc2C(C)OC)c2c3cc(ccc31)N1CCOC(CC(NC(=O)C(C(C)C)N(C)C(=O)C3(F)CCN(C(=O)C#CC(C)(C)N(C)C)CC3)C(=O)N3CCCC(N3)C(=O)OCC(C)(C)C2)C1" observed_value=81
compound="CC1(C)CCC(Nc2ncc(C(F)(F)F)c(-c3c[nH]c4c(P(C)(C)=O)c(C#N)ccc34)n2)CN1 (centres undefined) + CCn1c(-c2cc(N3CCN(C)CC3)cnc2C(C)OC)c2c3cc(ccc31)-c1csc(n1)CC(NC(=O)C1CC1C)C(=O)N1CCCC(N1)C(=O)OCC(C)(C)C2" observed_value=14.5

====

System: 653999-131-R-J2-PDC complex spheroids, growth inhibition
assay info: Anticancer human tumor 653999-131-R-J2-PDC cell line growth inhibition [RAS];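 note: spheroids exposed to the agents for seven days before the readout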
study conditions: second compound 1 µM; first compound 0.316 µM; active compounds read low
viability, T/C under 40% gets Met, anything at or over 40% gets Not met.

compound="C=CC(=O)Nc1cc(Nc2nccc(-c3cn(C)c4ccccc34)n2)c(OC)cc1N(C)CCN(C)C + C=CC(=O)N1CCN(c2nc(OCC3CCCN3C)nc3c(F)c(-c4nc(N)cc(C)c4C(F)(F)F)c(Cl)cc23)C(C)C1" cat="Not met"
compound="CCC(CC)c1cc(NC2CCC(N)C2)n2nccc2n1 (stereo not given) + C#Cc1c(F)ccc2cc(O)cc(-c3ncc4c(N5CC6CCC(C5)N6)nc(OCC56CCCN5CC(F)C6)nc4c3F)c12" cat="Not met"
compound="CC1(O)CCCC1n1c(=O)c(C(F)F)cc2cnc(NC3CCN(S(C)(=O)=O)CC3)nc21 (stereo not given) + C#Cc1c(F)ccc2cc(O)cc(-c3ncc4c(N5CC6CCC(C5)N6)nc(OCC56CCCN5CC(F)C6)nc4c3F)c12" cat=Met
compound="Nc1ccn(C2OC(CO)C(O)C2(F)F)c(=O)n1 (stereo not given) + C=CC(=O)N1CCN(c2nc(OCC3CCCN3C)nc3c(F)c(-c4nc(N)cc(C)c4C(F)(F)F)c(Cl)cc23)C(C)C1" cat="Not met"
compound="CC(=O)OC12COC1CC(O)C1(C)C(=O)C(O)C3=C(C)C(OC(=O)C(O)C(NC(=O)OC(C)(C)C)c4ccccc4)CC(O)(C(OC(=O)c4ccccc4)C21)C3(C)C (stereo not given) + C#Cc1c(F)ccc2cc(O)cc(-c3ncc4c(N5CC6CCC(C5)N6)nc(OCC56CCCN5CC(F)C6)nc4c3F)c12" cat=Met
